# assay info: Metabolic stability in monkey liver microsomes assessed as compound remaining after 120 mins by HPLC
# Format: ADME, Macaca mulatta, Microsome
# measurement setup: rhesus monkey, read-out: Activity
test readout: remaining at 2 h
Kindly write the number and append the unit.

Task item: Entry Cc1ncc2n1C(=O)N(C1CCN(C(=O)CCS(=O)(=O)c3ccc4cc(Cl)ccc4c3)CC1)C2 : reported remaining at 2 h = ?
Reply: 99.9%

* * *

Listed molecules paired with reported logD
# assay info: Octanol-water partition coefficient, log D at pH 7.4
# Assay type: physicochemical

Task item: Using the record for O=C([C@H](O)CS(=O)(=O)c1ccc2cc(Cl)ccc2c1)N1CCC(N2CCCS2(=O)=O)CC1 , report its logD.
Reply: 1.69

Task item: Also need O=C([C@H](O)CS(=O)(=O)c1ccc2cc(Cl)ccc2c1)N1CCC(N2CCCCCC2=O)CC1 , thanks.
Reply: 2.52

Task item: Would you kindly repeat that for Cc1ncc2n1C(=O)N(C1CCN(C(=O)[C@H](O)CS(=O)(=O)c3ccc4cc(Cl)ccc4c3)CC1)C2 ?
Reply: 2.13

Task item: Query O=C([C@H](O)CS(=O)(=O)c1ccc2cc(Cl)ccc2c1)N1CCC(N2C[C@@H]3CCCN3C2=O)CC1 next
Reply: 2.16

Task item: Input O=C([C@H](O)CS(=O)(=O)c1ccc2cc(Cl)ccc2c1)N1CCC(N2CCCNC2=O)CC1
Reply: 1.81

---
Task item: State the recorded logD for this entry: O=C([C@H](O)CS(=O)(=O)c1ccc2cc(Cl)ccc2c1)N1CCC(N2CCOC2=O)CC1
Reply: 1.75

Task item: Then this molecule: O=C([C@H](O)CS(=O)(=O)c1ccc2cc(Cl)ccc2c1)N1CCC(N2CCOCC2=O)CC1
Reply: 1.85

Task item: Further, for O=C([C@H](O)CS(=O)(=O)c1ccc2cc(Cl)ccc2c1)N1CCC(n2cc[nH]c2=O)CC1 ?
Reply: 1.79

* * *

# assay info: Octanol-water partition coefficient, log D at pH 7.4
# Type: physicochemical
test readout: logD
Quick one: just the number, no unit, thanks!

Task item: Consider the compound shown here: O=C([C@H](O)CS(=O)(=O)c1ccc2cc(Cl)ccc2c1)N1CCC(N2Cc3ccccc3C2=O)CC1 What is its recorded logD?
Reply: 2.58

Task item: Can you check O=C([C@H](O)CS(=O)(=O)c1ccc2cc(Cl)ccc2c1)N1CCC(N2CCNC2=O)CC1 next?
Reply: 1.73

Now for another entry.
Task item: Param item = O=C([C@H](O)CS(=O)(=O)c1ccc2cc(Cl)ccc2c1)N1CCC(N2Cc3cccn3C2=O)CC1 ; retrieve measured logD.
Reply: 2.6

* * *

Parameter: logD. Scope: all listed entries.
# assay info: Octanol-water partition coefficient, log D at pH 7.4
# Format: physicochemical

Task item: // query logD value for entry O=C([C@H](O)CS(=O)(=O)c1ccc2cc(Cl)ccc2c1)N1CCC(N2CCCC2=O)CC1
Reply: 1.96

Task item: Next up: O=C([C@H](O)CS(=O)(=O)c1ccc2cc(Cl)ccc2c1)N1CCC(N2CCCC2)CC1
Reply: 1.56

Task item: Subsequent entry: O=C([C@H](O)CS(=O)(=O)c1ccc2cc(Cl)ccc2c1)N1CCC(N2NCCCC2=O)CC1
Reply: 1.85

Task item: How about this molecule: O=C([C@H](O)CS(=O)(=O)c1ccc2cc(Cl)ccc2c1)N1CCC(N2CCCCC2=O)CC1
Reply: 2.19

Task item: Now the molecule O=C([C@H](O)CS(=O)(=O)c1ccc2cc(Cl)ccc2c1)N1CCC(N2C[C@H]3CCCN3C2=O)CC1
Reply: 2.16

// below: logD requested for another molecule
Task item: Endpoint output: logD of O=C([C@H](O)CS(=O)(=O)c1ccc2cc(Cl)ccc2c1)N1CCC(N2CCCOC2=O)CC1 . Value?
Reply: 1.67
